Origin of measurements: patent US20040063662A1

# Tested on: 786-0
# measurement_notes: NCI human tumor cell panel: 786-0 (Renal Cancer)
# Assay type: cell-based
# condition_notes: 786-0, read-out: Log10 GI50 (converted)
assay_endpoint: GI50 (µM)
One number for each entry, in µM.

>>> recorded_result("OCc1ccc(-c2ccc(-c3ccc[se]3)[se]2)[se]1 [compound 675246]")
2.19
>>> recorded_result("OCc1ccc(-c2ccc(-c3ccc(CO)[se]3)[se]2)[se]1 [compound 675247]")
2.75

Let us examine a further case.
GI50 measured on OCc1ccc(-c2ccc(-c3ccc(CO)[se]3)s2)s1 [compound 688830] = 6.46

###

Kindly state IC50 for each of the entries shown.
# target_entity: 50:50 mixture of recombinant mouse PKCα and mouse PKCβ2
# Construct: The enzymes are expressed in Sf9 insect cells from recombinant baculovirus and partially purified on DEAE-cellulose and Sephacryl 200 gel filtration
# measurement_notes: Protein Kinase C (PKC) screening assay
# Assay type: biochemical
# condition_notes: Inhibition of Protein Kinase C
Answers are plain numbers, in µg/mL.

>>> recorded_result("O=Cc1ccc(-c2ccc(-c3ccc(C=O)[se]3)s2)[se]1 [compound 676630]")
0.9
>>> recorded_result("O=Cc1ccc(-c2ccc(-c3ccc[se]3)[nH]2)[se]1 [compound 676634]")
0.8
>>> recorded_result("O=Cc1ccc(-c2ccc(-c3ccc(C=O)s3)[se]2)s1 [compound 675345]")
0.9
>>> recorded_result("OCc1ccc(-c2ccc(-c3ccc(CO)[se]3)s2)[se]1 [compound 676632]")
50
>>> recorded_result("O=Cc1ccc(-c2ccc(-c3ccc[se]3)s2)[se]1 [compound 676629]")
0.2

Dear colleague, could you please provide IC50 for the compounds listed below?
1. OCc1ccc(-c2ccc(-c3ccc(CO)s3)[se]2)s1 [compound 675343]
2. OCc1ccc(-c2ccc(-c3ccc(CO)[se]3)[se]2)[se]1 [compound 675247]

30
10

Given item O=Cc1ccc(-c2ccc(-c3cccs3)[se]2)s1 [compound 675346] , the value recorded as its IC50 is 0.5

###

# Test system: PC-3
# measurement_notes: NCI human tumor cell panel: PC-3 (Prostate Cancer)
# Assay type: cell-based
# condition_notes: PC-3, read-out: Log10 TGI (converted)
assay_endpoint: IC (TGI)

>>> recorded_result("OCc1ccc(-c2ccc(-c3ccc(CO)[se]3)s2)s1 [compound 688830]")
"> 100 µM"
>>> recorded_result("OCc1ccc(-c2ccc(-c3ccc(CO)[se]3)[se]2)[se]1 [compound 675247]")
"12.3 µM"
>>> recorded_result("OCc1ccc(-c2ccc(-c3ccc[se]3)s2)[se]1 [compound 676631]")
"> 100 µM"
>>> recorded_result("OCc1ccc(-c2ccc(-c3ccc(CO)[se]3)s2)[se]1 [compound 676632]")
"> 100 µM"
>>> recorded_result("O=Cc1ccc(-c2ccc(-c3ccc(C=O)[se]3)s2)s1 [compound 688829]")
"> 100 µM"
>>> recorded_result("OCc1ccc(-c2ccc(-c3ccc[se]3)[se]2)[se]1 [compound 675246]")
"13.2 µM"

Value of measured IC (TGI) for the entry OCc1ccc(-c2ccc(-c3ccc(CO)s3)[se]2)s1 [compound 675343] : > 100 µM

###

# Test system: UACC-257
# measurement_notes: NCI human tumor cell panel: UACC-257 (Melanoma)
# Assay type: cell-based
# condition_notes: UACC-257, read-out: Log10 GI50 (converted)
Response field label: string, one of fulfilled (GI50 strictly below 0.05 µM) or not fulfilled.

Reference set (5 entries):
>>> assigned_category("OCc1ccc(-c2ccc(-c3ccc[se]3)s2)[se]1")
"fulfilled"
>>> assigned_category("OCc1ccc(-c2ccc(-c3ccc(CO)[se]3)s2)[se]1")
"fulfilled"
>>> assigned_category("O=Cc1ccc(-c2ccc(-c3ccc(C=O)[se]3)s2)s1")
"not fulfilled"
>>> assigned_category("OCc1ccc(-c2ccc(-c3ccc(CO)s3)[se]2)s1")
"fulfilled"
>>> assigned_category("OCc1ccc(-c2ccc(-c3ccc(CO)[se]3)s2)s1")
"fulfilled"

Okay, next one:
Below 0.05 µM on GI50? Entry OCc1ccc(-c2ccc(-c3ccc(CO)[se]3)[se]2)[se]1
not fulfilled
